- Test Summary: The drug is tested on Z-008 corresponding to metagenome with ENA study accession number: PRJEB37062 and ENA sample accession number: ERS12561808 for biotransformation under anaerobic condition. The drug concentrations were measured over 9 timepoints collected between 0 and 24 hours of incubation by liquid-chromatography-coupled mass spectrometry (LC–MS); also: call rule not given here
- Reported Conditions: 2 µM
Assay Readout: Bacterial Biotransformation

# annotated cases, reported Bacterial Biotransformation shown
CN(C)CC(c1ccc(O)cc1)C1(O)CCCCC1.O=C(O)CCC(=O)O (centres undefined) [DESVENLAFAXINE SUCCINATE] : Compound NOT metabolized
Fc1ccc([C@@H]2CCNC[C@H]2COc2ccc3c(c2)OCO3)cc1 : Compound NOT metabolized
COc1cc2c(c(OC)c1OC)-c1ccc(OC)c(=O)cc1[C@@H](NC(C)=O)CC2 : Compound NOT metabolized
COc1c2occc2cc2ccc(=O)oc12 : Compound metabolized
CC(C)(C(=O)O)c1ccc(C(O)CCCN2CCC(C(O)(c3ccccc3)c3ccccc3)CC2)cc1 (centres undefined) [FEXOFENADINE] : Compound NOT metabolized
Cc1ccc(/C(=C\CN2CCCC2)c2ccccn2)cc1 : Compound NOT metabolized
CC(C(=O)O)c1ccc2c(c1)Cc1cccnc1O2 (centres undefined) : Compound metabolized
COc1cc2nc(N(C)CCCNC(=O)C3CCCO3)nc(N)c2cc1OC (centres undefined) : Compound NOT metabolized

Shift focus to the following entry.
Fill in: Bacterial Biotransformation of Cc1nc2n(c(=O)c1CCN1CCC(c3noc4cc(F)ccc34)CC1)CCCC2 is ___
Compound metabolized

----------
- Reported Conditions: human gut metagenome, 24 h, 2 µM
Assay Readout: Bacterial Biotransformation

# annotated cases, reported Bacterial Biotransformation shown
COc1ccc2c(c1OC)C(=O)O[C@@H]2[C@H]1c2c(cc3c(c2OC)OCO3)CCN1C : Compound metabolized
CNC(=C[N+](=O)[O-])NCCSCc1ccc(CN(C)C)o1 : Compound metabolized
CCCC(=O)Nc1ccc(OCC(O)CNC(C)C)c(C(C)=O)c1 (centres undefined) : Compound metabolized
CN(C)CC(c1ccc(O)cc1)C1(O)CCCCC1.O=C(O)CCC(=O)O (centres undefined) [DESVENLAFAXINE SUCCINATE] : Compound NOT metabolized
CC(C)NCC(O)c1ccc(NS(C)(=O)=O)cc1 (centres undefined) : Compound NOT metabolized

Report Bacterial Biotransformation for each item below.
1. CC(=O)OCC(=O)[C@@]12N=C(C)O[C@@H]1C[C@H]1[C@@H]3CCC4=CC(=O)C=C[C@]4(C)[C@H]3[C@@H](O)C[C@@]12C
2. CNS(=O)(=O)Cc1ccc2[nH]cc(CCN(C)C)c2c1.O=C(O)CCC(=O)O [SUMATRIPTAN SUCCINATE]
3. NC12CC3CC(CC(C3)C1)C2
4. Cc1ccc(S(=O)(=O)NC(=O)NN2CC3CCCC3C2)cc1 (centres undefined) [GLICLAZIDE]
5. Cc1ccc(-c2cc(C(F)(F)F)nn2-c2ccc(S(N)(=O)=O)cc2)cc1

Compound metabolized
Compound metabolized
Compound NOT metabolized
Compound metabolized
Compound NOT metabolized

Report Bacterial Biotransformation for each item below.
1. CN(C)CCC=C1c2ccccc2C=Cc2ccccc21
2. CCN1CCCC1CNC(=O)c1cc(S(N)(=O)=O)ccc1OC (centres undefined) [SULPIRIDE]
3. CC(C)c1nc(CN(C)C(=O)N[C@H](C(=O)N[C@@H](Cc2ccccc2)C[C@H](O)[C@H](Cc2ccccc2)NC(=O)OCc2cncs2)C(C)C)cs1

1: Compound metabolized; 2: Compound NOT metabolized; 3: Compound metabolized

Report Bacterial Biotransformation for each item below.
1. Clc1ccc(Cn2c(CN3CCCC3)nc3ccccc32)cc1
2. O=C(NCc1ccccc1)OCCO [BURAMATE]

["Compound metabolized", "Compound NOT metabolized"]
